# experimental details: qHTS of pediatric cancer cell lines to identify multiple opportunities for drug repurposing: Primary screen for SJ-GBM2 cells (AID 1347091)
# experimental context: SJ-GBM2 viability, CellTiter-Glo luminescence, 48 h; series mostly up to 46 µM
Records with an inconclusive call do not appear. Activity calls are given as the source filed them. Calls follow the shape of the dose curve; as a rule, active = well fitted cell-killing curve with a large enough effect; inconclusive = small, poorly fitted or top-dose-only effect; inactive = no such curve, though single readings can be large or run the other way.
Outcomes: class 1 (active), class 0 (inactive)

[
  {
    "compound": "Cn1cc(-c2cnn3c(N)c(Br)c([C@H]4CCCNC4)nc23)cn1",
    "discrete label": "class 1"
  },
  {
    "compound": "N#Cc1cc(NC(=O)Nc2nnc(-c3ccncc3)s2)ccc1-c1cn[nH]c1",
    "discrete label": "class 0"
  },
  {
    "compound": "COc1cc([C@@H]2c3cc4c(cc3[C@@H](O[C@@H]3O[C@@H]5CO[C@@H](c6cccs6)O[C@@H]5[C@H](O)[C@@H]3O)[C@H]3COC(=O)[C@H]23)OCO4)cc(OC)c1O",
    "discrete label": "class 1"
  },
  {
    "compound": "CC(=O)NC(CS)C(=O)O (configuration not stated)",
    "discrete label": "class 0"
  },
  {
    "compound": "NC(=O)Nc1cc(-c2ccc(CN3CCOCC3)cc2)sc1C(N)=O",
    "discrete label": "class 1"
  },
  {
    "compound": "CC1=C(C(=O)Nc2cc3cn[nH]c3cc2F)C(c2ccc(Cl)cc2F)N=C(c2ccnc(Cl)c2)N1 (configuration not stated)",
    "discrete label": "class 1"
  },
  {
    "compound": "O=C(CN1C(=O)C2(CCCC2)NC[C@H]1c1cc(F)cc(F)c1)Nc1ccc2c(c1)C[C@@]1(C2)C(=O)Nc2ncccc21",
    "discrete label": "class 0"
  }
]

* * *

Quick reference for viability (% of control) among some compounds
# experimental details: High-throughput drug toxicity screening in the BPDCN cell line Cal-1 (AID 1224825);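 also: cells exposed to compounds for 48 h; 100% = DMSO and 0% = bortezomib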
# experimental context: Cal-1 BPDCN cell viability, qHTS; at 45.8 µM (top of the series) unless noted

[
  {
    "compound": "CC(=O)C1=C(O)C=C2Oc3c(C(C)=O)c(O)c(C)c(O)c3C2(C)C1=O (centres undefined)",
    "viability (% of control), %": 103
  },
  {
    "compound": "C[C@@H]1[C@H](C)CC[C@]2(C(=O)O)CC[C@]3(C)C(=CC[C@@H]4[C@@]5(C)C[C@@H](O)[C@H](O)[C@@](C)(CO)[C@H]5CC[C@]43C)[C@@H]12",
    "viability (% of control), %": 122
  },
  {
    "compound": "CCCNC(=O)[C@H]1O[C@H]1C(=O)N[C@H](C(=O)N1CCC[C@@H]1C(=O)OC)C(C)CC (some centres undefined)",
    "viability (% of control), %": 8.18
  },
  {
    "compound": "O=c1ccn([C@@H]2O[C@H](CO)[C@H](O)[C@@H]2F)c(=O)[nH]1",
    "viability (% of control), %": 119
  },
  {
    "compound": "Nc1nc(N)c2nc(-c3cccc(O)c3)c(-c3cccc(O)c3)nc2n1",
    "viability (% of control), %": 5.3
  },
  {
    "compound": "NC(=O)c1ncn([C@@H]2O[C@H](CO)[C@@H](O)[C@@H]2O)c1N",
    "viability (% of control), %": 112
  },
  {
    "compound": "COc1ccnc2[nH]cc(C(=O)C(=O)N3CCN(C(=O)c4ccccc4)C[C@@H]3C)c12",
    "viability (% of control), %": 119
  },
  {
    "compound": "O=C(C=CC#Cc1cccc(NS(=O)(=O)c2ccccc2)c1)NO",
    "viability (% of control), %": 3.48
  },
  {
    "compound": "Cn1c(Nc2ccc(C(F)(F)F)cc2)nc2cc(Oc3ccnc(-c4ncc(C(F)(F)F)[nH]4)c3)ccc21",
    "viability (% of control), %": 13.2
  }
]

* * *

# experimental details: qHTS of pediatric cancer cell lines to identify multiple opportunities for drug repurposing: Confirmatory screen for Saos-2 cells (AID 1347127); also: nearly all actives have a fitted effect of over 60% in size
# experimental context: Saos-2 osteosarcoma cell viability; series mostly up to 45.9 µM
Records with an inconclusive call do not appear. Active and inactive are the calls of the source. Calls come from the whole dose curve; as a rule, active = well fitted cell-killing curve with a large enough effect; inconclusive = small, poorly fitted or top-dose-only effect, or effect the other way; inactive = no such curve, though single readings can be large or run the other way.
Outcomes: active, inactive

[
  {
    "smiles code": "Nc1ncn([C@@H]2O[C@H](CO)[C@@H](O)[C@@H]2O)c(=O)n1",
    "discrete label": "active"
  },
  {
    "smiles code": "Cn1cc(CNCC2CCN(c3ncc(C(=O)NO)cn3)CC2)c2ccccc21",
    "discrete label": "active"
  },
  {
    "smiles code": "O=C1NC(=O)C(=Cc2ccc3nccc(-c4ccncc4)c3c2)S1",
    "discrete label": "active"
  },
  {
    "smiles code": "CCN(CC)CCNC(=O)c1c(C)[nH]c(C=C2C(=O)Nc3ccc(F)cc32)c1C",
    "discrete label": "active"
  },
  {
    "smiles code": "O=S(=O)(O)CCSSCCS(=O)(=O)O",
    "discrete label": "inactive"
  }
]

* * *

# Tested on: CP286
# experimental details: qHTS profiling for inhibitors of Plasmodium falciparum proliferation (AID 504749); also: nearly all actives have a fitted effect of over 60% in size
# experimental context: P. falciparum in erythrocytes, SYBR Green DNA, 72 h; series mostly up to 28.7 µM
Results filed as inconclusive are left out. Activity calls are given as the source filed them. Calls follow the shape of the dose curve; as a rule, active = well fitted inhibition curve with a large enough effect; inconclusive = small, poorly fitted or top-dose-only effect; inactive = flat fitted curve, though single readings scatter.
Outcomes: active, inactive

[
  {
    "compound": "OCC(O)C(O)C(O)CO (stereo not given)",
    "discrete label": "inactive"
  },
  {
    "compound": "CCC(C(=O)O)C1CCC(C)C(C(C)C(O)C(C)C(=O)C(CC)C2OC3(C=CC(O)[C@@]4(CC[C@](C)(C5CC[C@@](O)(CC)C(C)O5)O4)O3)C(C)CC2C)O1 (stereo not given in full)",
    "discrete label": "active"
  },
  {
    "compound": "CCCCCCCCCCCC(CC1OC(=O)C1CCCCCC)OC(=O)C(CC(C)C)NC=O (stereo not given)",
    "discrete label": "active"
  },
  {
    "compound": "COc1cccc2c1C(=O)c1c(O)c3c(c(O)c1C2=O)C[C@@](O)(C(=O)CO)C[C@@H]3O[C@H]1C[C@H](N)[C@H](OC2CCCCO2)[C@H](C)O1 (stereo not given in full)",
    "discrete label": "active"
  },
  {
    "compound": "Nc1nc2c(c(=O)[nH]1)N(C=O)[C@H](CNc1ccc(C(=O)N[C@@H](CCC(=O)O)C(=O)O)cc1)CN2",
    "discrete label": "inactive"
  }
]

* * *

# experimental details: qHTS for identification of novel therapeutic agents for treatment of microphthalmiaassociated transcription factor (MiT) renal cell carcinoma (RCC) (AID 1963991);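 also: curves scaled with 100% = DMSO viability and 0% = empty wells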
# experimental context: TFE3-RCC viability, CellTiter-Glo, 48 h; measured here: UOK145 Z-AUC; stronger effect = lower value
Records with an inconclusive call do not appear.
Recorded z-score determines the group label, using category 1 = under -2, category 2 = from -2 up to 0.02, category 3 = 0.02 and over

[
  {
    "compound": "C[C@]12CCC(=O)C=C1[C@@H]1CC1[C@H]1[C@H]3[C@@H]4C[C@H]4[C@@]4(CCC(=O)O4)[C@@]3(C)CC[C@H]12 (stereo not given in full)",
    "discrete label": "category 1"
  },
  {
    "compound": "Cc1cnc(Nc2ccc(CN3CCOCC3)cc2)nc1Nc1cccc(S(=O)(=O)NC(C)(C)C)c1",
    "discrete label": "category 2"
  },
  {
    "compound": "CN(N=O)C(=O)N[C@H]1C(O)OC(CO)[C@@H](O)[C@H]1O (stereo not given in full)",
    "discrete label": "category 2"
  },
  {
    "compound": "COC[C@H](NC(=O)c1cnc(C)s1)C(=O)N[C@@H](COC)C(=O)N[C@@H](Cc1ccccc1)C(=O)[C@@]1(C)CO1",
    "discrete label": "category 1"
  },
  {
    "compound": "O=C1c2cccc(O)c2C(=O)c2c(O)cc(CO)cc21",
    "discrete label": "category 2"
  },
  {
    "compound": "Cc1cc(Nc2ncc3c(n2)N(C)C(=O)N(c2cc(NC(=O)c4cccc(C(F)(F)F)c4)ccc2C)C3)n(C)n1",
    "discrete label": "category 1"
  },
  {
    "compound": "Cc1noc(-c2ccc(CSCCC(=O)O)cc2)c1NC(=O)OC(C)c1ccccc1Cl (stereo not given)",
    "discrete label": "category 3"
  },
  {
    "compound": "COc1cc(C)c(C=CC(C)=CC=CC(C)=CC(=O)O)c(C)c1C",
    "discrete label": "category 3"
  },
  {
    "compound": "O=C(O)C=Cc1ccc(Cn2ccnc2)cc1",
    "discrete label": "category 3"
  },
  {
    "compound": "COc1ccc(S(=O)(=O)Nc2cccnc2Nc2ccc(O)cc2)cc1",
    "discrete label": "category 2"
  }
]
